Where do the numbers come from? From patent US20220125891A1.

# test_target: T1, Reg1_301-599 (human Regnase-1 amino acids 301 to 599, FLAG tag on the N-terminal side, BirA recognition … (human))
# T1 sequence (Q5D1E8 301-599, looked up): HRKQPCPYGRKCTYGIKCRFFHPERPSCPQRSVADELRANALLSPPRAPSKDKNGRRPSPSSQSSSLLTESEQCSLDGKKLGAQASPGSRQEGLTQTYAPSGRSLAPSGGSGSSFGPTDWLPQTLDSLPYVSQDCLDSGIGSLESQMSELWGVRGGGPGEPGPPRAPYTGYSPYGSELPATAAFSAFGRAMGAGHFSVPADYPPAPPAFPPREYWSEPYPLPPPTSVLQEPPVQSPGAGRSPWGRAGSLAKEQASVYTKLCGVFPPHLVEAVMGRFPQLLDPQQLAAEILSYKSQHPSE
# procedure_summary: cell-based or functional assay
Positions of bridges follow the written chain, without caps; N, C: chain ends. Non-standard residues stand in square brackets, D forms with d. No end group written: not given here. NMeA = CN[C@@H](C)C(=O)O
measurement_label: IC50, phosphorylation by TBK1 (µM)
Form entry: value (µM) — number only.

Given the entry [NMeA]RYAVYQWIYPD (lactam N-12) [PP12] , report its measured IC50, phosphorylation by TBK1.
19.6
